- System: rat aorta
- ASSAY TEXT: Inhibition of calcium-induced contraction of isolated rat aorta strips (reduction of response to added calcium chloride in K+-containing saline)
- Type: cell-based
- PARTICULARS: 0.75 h; spirally cut rat aorta strips, 45 millimolar potassium, calcium 2 millimolar, test repeated with compound after 45 minutes; read-out: molar concentration of the compounds required to reduce the response by 50% (IC50)
Where a name gives a salt, the structure may show the parent alone.
Please provide measured pIC50 for the entries that follow.
Just the number, please; pIC50 means minus log10 of the concentration in mol/L.

// fetch rat aorta pIC50 for CCOC(=O)C1=C(COCCN2CCN(C(=O)[C@@H]3CCC(=O)N3)CC2)NC(C)=C(C(=O)OC)C1c1ccccc1Cl (stereo partly shown) [Example 54, hydrochloride hydrate]
8.52

Reported pIC50 for rat aorta, given CCOC(=O)C1=C(COCCN2CCN(C(=O)NS(=O)(=O)c3ccc(C)cc3)CC2)NC(C)=C(C(=O)OC)C1c1ccccc1Cl (stereo not shown) [Example 16] ?
6.60

Given the entry CCOC(=O)C1=C(COCCN2CCN(C(=O)Nc3ccccc3)CC2)NC(C)=C(C(=O)OC)C1c1ccccc1Cl (stereo not shown) [Example 15] , what pIC50 was observed with rat aorta?
8.30

Recorded pIC50 for CCOC(=O)CNC(=O)N1CCN(CCOCC2=C(C(=O)OCC)C(c3ccccc3Cl)C(C(=O)OC)=C(C)N2)CC1 (stereo not shown) [Example 17] with rat aorta, please?
7.01

Hi! What's the reported pIC50 for CCOC(=O)C1=C(COCCN2CCN(CC(=O)Nc3c(C)cccc3C)CC2)NC(C)=C(C(=O)OC)C1c1ccccc1Cl (stereo not shown) [Example 38] on rat aorta?
7.69

Give recorded pIC50 with rat aorta for the following compound: CCOC(=O)C1=C(COCCN2CCN(C(=O)NC)CC2)NC(C)=C(C(=O)OC)C1c1cccc2ccccc12 (stereo not shown) [Example 70B, hydrate]
7.05

For rat aorta, provide pIC50 of CCOC(=O)C1=C(COCCN2CCN(C(=NC#N)NCCN(C)C)CC2)NC(C)=C(C(=O)OC)C1c1ccccc1Cl (stereo not shown) [Example 6] please.
7.00
